Target: T1, (7× His)-PSD-95-PDZ2 wild type (UniProt P78352 160-246)
T1 construct: domain: PDZ2; recombinant from E. coli; also called PSD-95-PDZ2 WT; not shown: 7x His tag
T1 sequence (P78352 160-246): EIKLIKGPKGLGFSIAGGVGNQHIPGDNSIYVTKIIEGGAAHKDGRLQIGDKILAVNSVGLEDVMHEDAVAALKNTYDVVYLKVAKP
Experiment: FP competition
pKi: −log10 of the molar value. Bridges are numbered along the chain shown (N, C = ends). [ ]: non-standard residue; d: D form.
Readout Name: pKi

[[record]]
binder = "XHLETTFTGDGTPKTIRVTQPGC (cyclic by thioether (N-terminal acetyl to Cys); D-Pro, also called thioether bridged analogue) [Cyclo-(Ac105…124pGC), Thioether]"
val = 5.32

[[record]]
binder = "THLETTFTGDGTPKTIRVTQ[dP]GD-NH2 (lactam N-23) [Cyclo-(105THLETTFTGDGTPKTIRVTQ124pG(Dγ)), Asp side-chain lactam]"
val = 5.37

[[record]]
binder = "THLETTFTGDGTPKTIRVTQ[dP]GE-NH2 (lactam N-23) [Cyclo-(105THLETTFTGDGTPKTIRVTQ124pG(Eγ)), Glu side-chain lactam]"
val = 5.44

[[record]]
binder = "cyclo(CTHLETTFTGDGTPKTIRVTQ[dP]G) (also called NCL peptide) [Cyclo-(C105THLETTFTGDGTPKTIRVTQ124pG), NCL]"
val = 6.00

